Target: EphA2 receptor (Mus musculus)
Experiment: ELISA displacement of ephrin-A1 binding from immobilized EphA2 receptor
MEASURED QUANTITY: IC50 (µM)
Kindly answer with a numeric value in µM, unit omitted.

The molecule C[C@H](CCC(=O)O)[C@H]1CC[C@H]2[C@@H]3CCC4CCCC[C@]4(C)[C@H]3CC[C@]12C (stereo partly shown) showed IC50 equal to 12.3

* * *

List of IC50 values.
Target: EphA2 receptor (Mus musculus, UniProt Q03145)
Sequence (Q03145 with tags, fused parts or gaps limits assumed): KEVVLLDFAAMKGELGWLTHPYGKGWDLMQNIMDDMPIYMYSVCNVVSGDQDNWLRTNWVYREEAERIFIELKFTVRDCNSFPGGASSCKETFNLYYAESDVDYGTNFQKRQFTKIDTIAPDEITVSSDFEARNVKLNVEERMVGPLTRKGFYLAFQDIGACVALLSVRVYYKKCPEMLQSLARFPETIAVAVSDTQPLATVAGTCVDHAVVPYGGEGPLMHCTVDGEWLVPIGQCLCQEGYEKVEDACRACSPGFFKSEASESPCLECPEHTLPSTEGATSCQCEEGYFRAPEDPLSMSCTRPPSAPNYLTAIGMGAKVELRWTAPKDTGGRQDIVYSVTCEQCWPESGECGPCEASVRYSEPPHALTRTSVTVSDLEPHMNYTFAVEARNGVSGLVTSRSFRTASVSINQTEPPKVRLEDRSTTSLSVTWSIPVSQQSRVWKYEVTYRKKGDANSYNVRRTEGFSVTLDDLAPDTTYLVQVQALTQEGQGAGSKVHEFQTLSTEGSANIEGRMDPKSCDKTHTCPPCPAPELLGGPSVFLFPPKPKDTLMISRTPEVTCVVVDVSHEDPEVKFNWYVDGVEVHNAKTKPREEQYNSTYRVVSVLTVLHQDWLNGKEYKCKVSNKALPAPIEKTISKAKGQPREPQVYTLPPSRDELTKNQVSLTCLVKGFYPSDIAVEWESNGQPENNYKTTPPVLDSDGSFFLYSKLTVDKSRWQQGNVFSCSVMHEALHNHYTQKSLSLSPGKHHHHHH
Assay: ELISA displacement of ephrin-A1 binding from immobilized EphA2 receptor
Conditions: inhibition of biotinylated ephrin-A1-Fc binding to EphA2-Fc; means ± SEM from at least three independent experiments; read-out: pIC50±SEM (converted)
Kindly answer with a numeric value in µM, unit omitted.

{"COMPOUND": "C[C@H](CCC(=O)N[C@@H](Cc1c[nH]c2ccccc12)C(=O)O)[C@H]1CC[C@H]2[C@@H]3CC[C@@H]4CCCC[C@]4(C)[C@H]3CC[C@]12C", "IC50, µM": 28.2}

# ---- query compound ----
The compound C[C@H](CCC(=O)N[C@@H](Cc1ccccc1)C(=O)O)[C@H]1CC[C@H]2[C@@H]3CC[C@@H]4CCCC[C@]4(C)[C@H]3CC[C@]12C showed IC50 equal to 21.4

* * *

Molecular target: EphA2 receptor (Mus musculus)
Assay: ELISA displacement of ephrin-A1 binding from immobilized EphA2 receptor
Settings: inhibition of biotinylated ephrin-A1-Fc binding to EphA2-Fc; means ± SEM from at least three independent experiments; read-out: pIC50±SEM (converted)
MEASURED QUANTITY: IC50 (µM)
Kindly answer with a numeric value in µM, unit omitted.

{"COMPOUND": "C[C@H](CCC(=O)N[C@H](Cc1ccccc1)C(=O)O)[C@H]1CC[C@H]2[C@@H]3CC[C@@H]4CCCC[C@]4(C)[C@H]3CC[C@]12C", "UNIT OF MEASUREMENT": "µM", "IC50": 26.3}

# ---- query molecule ----
The molecule C[C@H](CCC(=O)N[C@H](Cc1c[nH]c2ccccc12)C(=O)O)[C@H]1CC[C@H]2[C@@H]3CC[C@@H]4CCCC[C@]4(C)[C@H]3CC[C@]12C showed IC50 equal to 63.1
